Target: Gastrin/cholecystokinin type B receptor (Mus musculus, UniProt P56481)
Sequence (P56481 whole entry): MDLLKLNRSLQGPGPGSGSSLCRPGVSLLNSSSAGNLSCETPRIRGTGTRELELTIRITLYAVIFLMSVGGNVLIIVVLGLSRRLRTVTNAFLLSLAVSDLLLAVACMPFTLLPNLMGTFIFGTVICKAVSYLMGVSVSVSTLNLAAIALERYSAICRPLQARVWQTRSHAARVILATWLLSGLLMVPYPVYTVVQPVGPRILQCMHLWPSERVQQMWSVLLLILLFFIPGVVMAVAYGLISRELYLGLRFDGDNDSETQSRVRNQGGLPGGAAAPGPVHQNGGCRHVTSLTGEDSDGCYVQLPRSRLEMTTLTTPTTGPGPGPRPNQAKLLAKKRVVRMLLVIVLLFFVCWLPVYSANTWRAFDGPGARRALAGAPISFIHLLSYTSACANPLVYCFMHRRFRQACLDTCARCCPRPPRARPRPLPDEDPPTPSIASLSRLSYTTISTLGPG
Test: The concentration (nM) producing half-maximal inhibition of specific binding of [1251] Bolton Hunter CCK-8 to CCK receptors in the mouse cerebral cortex (CCK-B);value ranges from 63 to 170
Format: tissue-based
quantity.measured: pIC50
Answer as the number alone; pIC50 is minus log10 of concentration in mol/L.

Request: Field: pIC50 (Gastrin/cholecystokinin type B receptor (Mus musculus, UniProt P56481)). Entry: CC(Cc1c[nH]c2ccccc12)(NC(=O)OC1C2CC3CC(C2)CC1C3)C(=O)NC[C@H](NC(=O)CCNC(=O)C(F)(F)F)c1ccccc1 (single isomer, unassigned)
Result: 7.05
